- TEST SUMMARY: decrease of insulin promoter-GFP reporter – imaging, high-content screening, mouse beta cells (AID 1628)
- MEASUREMENT PARAMETERS: MIN6 insulin promoter GFP reporter, at 5 µM
About 930 (0.49%) of roughly 190,000 compounds were called active.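 Rule for the calls: active = z-score of insulin promoter reporter brightness in nuclei below -3 at 5 µM, with at least 500 cells counted; inconclusive = wells with under 500 cells, flagged as toxic or sparse; inactive = the rest.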 This is one part of the list. Potency and affinity values are given separately.
Outcome codes: y for active, n for inactive

COMPOUND: CC1CCc2nc3ccccc3c(C(=O)OCC(=O)N3CCc4ccccc43)c2C1 (stereo not drawn)
CATEGORY: y

COMPOUND: COc1ccccc1N1CCN(C/C(O)=C(\C#N)c2nc(-c3ccccc3)cs2)CC1
CATEGORY: n

COMPOUND: O=C(CN1CCOCC1)Nc1nc(-c2ccc3c(c2)CCN3S(=O)(=O)c2ccccc2)cs1
CATEGORY: y
